Measurement record for UniProt P80147; quantity recorded: pIC50.
Sequence (P80147 29-500): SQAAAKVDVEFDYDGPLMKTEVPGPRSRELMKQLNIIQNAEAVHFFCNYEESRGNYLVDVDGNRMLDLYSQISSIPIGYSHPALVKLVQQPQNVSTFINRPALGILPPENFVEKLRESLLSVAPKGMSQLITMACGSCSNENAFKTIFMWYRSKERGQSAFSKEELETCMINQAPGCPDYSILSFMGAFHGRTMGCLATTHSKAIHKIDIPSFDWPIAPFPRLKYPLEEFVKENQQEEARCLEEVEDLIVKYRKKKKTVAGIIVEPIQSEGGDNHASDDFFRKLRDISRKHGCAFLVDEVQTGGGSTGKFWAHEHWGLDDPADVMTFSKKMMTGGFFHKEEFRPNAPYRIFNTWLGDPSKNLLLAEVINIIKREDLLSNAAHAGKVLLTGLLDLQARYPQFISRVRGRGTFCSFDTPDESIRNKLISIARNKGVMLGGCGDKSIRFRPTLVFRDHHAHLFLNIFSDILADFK
pIC50: −log10 of the molar value.

[
  {
    "compound": "C=CC(N)CCc1nnnn1C (centres unmarked)",
    "readoutLabel": "pIC50",
    "readoutValue": "< 2.00"
  }
]

Query: Which pIC50 is listed for C=CC(N)CCc1nnn(C)n1 (centres unmarked) ?
Response: < 2.00

====

- studySystem: UniProt P80147
- procedureText: Time-dependent inhibition of GABA-AT (Kitz and Wilson replot)
- protocolConditions: time-dependent inhibition, 25 ° C., pH 8.5
readoutLabel: pKi
Schema: pKi number; meaning minus log10 of the concentration expressed in molar units.

Query: Which pKi is listed for C=CC(N)CCc1nnn[nH]1 (stereo not shown) ?
Response: 2.25

====

- studySystem: UniProt:P80147
- procedureText: Preliminary substrate activity test with [14C]-labeled α-ketoglutarate
- Type: biochemical, pig
- protocolConditions: preliminary test, 48 h incubation
readoutLabel: substrate activity for GABA-AT (in words)

[
  {
    "compound": "COC(=O)NC(=O)CCN [Compound 2, Methyl β-alanylcarbamate]",
    "studySystem": "UniProt:P80147",
    "readoutValue": "substrates for GABA-AT"
  },
  {
    "compound": "CS(=O)(=O)NC(=O)CCN [Compound 3, Methyl b-alanylsulfonamide]",
    "studySystem": "UniProt:P80147",
    "readoutValue": "substrates for GABA-AT"
  },
  {
    "compound": "NCCc1nnn[nH]1",
    "studySystem": "UniProt:P80147",
    "readoutValue": "substrates for GABA-AT"
  }
]
